target: D614G Spike (SARS-CoV2)
The reader will find reported Kd values listed item by item below.
Record the value in pM, omitting the unit from your answer.

RBD-R3-E1-B3 Ab (Ab_32) scFv-Fc (scFv, V domains shown) VH: QVQLVQSGAEVKKPGESLKISCKGSGYSFTSYWIGWVRQMPGKGLEWMGIIYPGDSDTRYSPSFQGQVTISADKSISTAYLQWSSLKASDTAMYYCARGWQWHDYWGQGTLVTVSS VL: QTVVTQEPAVSVALGQTVRITCQGDSLRSYYASWYQQKPGQAPVLVVYDKDKRPSGIPDRFSGSTSGNTASLTITGAQAEDEADYYCNSRDRSDNHVVFGGGTKLTVL; 7.26

Consider the additional binder presented here.
Item: S1-RBD-R3-T1-F5 (Ab2-7) scFv-Fc (scFv, V domains shown) VH: QVTLKESGPTRVKPTQTLTLTCTFSGFSLSTTGVGVGWIRQPPGKALEWLALIYWNDDKRYSPSLKSRLTITKDTSKNQVVLTMTNMDPVDTATYYCARISGSGYFYPFDIWGQGTTVTVSS VL: NFMLTQPHSVSESPGKTVTISCTRSSGSIASNYVQWYQQRPGSSPTTVIYEDNQRPSGVPDRFSGSIDSSSNSASLTISGLKAEDEADYYCQSYDSSSLWVFGGGTKLTVL | Kd: 9.93
